Conditions: in methyl acetate, 288.15 K
property_measured: solubility (mole fraction)
Hey, just send me the number, nothing else.

Give the reported value of solubility (mole fraction) for this record: CCCN(CCC)S(=O)(=O)c1ccc(C(=O)O)cc1
0.00544

###

Conditions: in n-butanol, 298.15 K
property_measured: solubility (mole fraction)
Hey, just send me the number, nothing else.

Give the reported value of solubility (mole fraction) for this record: CCCN(CCC)S(=O)(=O)c1ccc(C(=O)O)cc1
0.0131

###

Conditions: in methanol, 308.15 K
property_measured: solubility (mole fraction)

Give the reported value of solubility (mole fraction) for this record: CCCN(CCC)S(=O)(=O)c1ccc(C(=O)O)cc1
0.0132

###

Settings: in isopropanol, 303.15 K
property_measured: solubility (mole fraction)
Hey, just send me the number, nothing else.

Give the reported value of solubility (mole fraction) for this record: CCCN(CCC)S(=O)(=O)c1ccc(C(=O)O)cc1
0.0122

###

Details: in n-butanol, 308.15 K
property_measured: solubility (mole fraction)
Hey, just send me the number, nothing else.

Give the reported value of solubility (mole fraction) for this record: CCCN(CCC)S(=O)(=O)c1ccc(C(=O)O)cc1
0.0186

###

Conditions: in n-butyl acetate, 283.15 K
property_measured: solubility (mole fraction)

Give the reported value of solubility (mole fraction) for this record: CCCN(CCC)S(=O)(=O)c1ccc(C(=O)O)cc1
0.00308

###

Settings: in isopropanol, 298.15 K
property_measured: solubility (mole fraction)
Hey, just send me the number, nothing else.

Give the reported value of solubility (mole fraction) for this record: CCCN(CCC)S(=O)(=O)c1ccc(C(=O)O)cc1
0.0106

###

Details: in n-propanol, 318.15 K
property_measured: solubility (mole fraction)

Give the reported value of solubility (mole fraction) for this record: CCCN(CCC)S(=O)(=O)c1ccc(C(=O)O)cc1
0.0246

###

Details: in acetone, 308.15 K
property_measured: solubility (mole fraction)
Hey, just send me the number, nothing else.

Give the reported value of solubility (mole fraction) for this record: CCCN(CCC)S(=O)(=O)c1ccc(C(=O)O)cc1
0.0268

###

Settings: in n-butyl acetate, 323.15 K
property_measured: solubility (mole fraction)
Hey, just send me the number, nothing else.

Give the reported value of solubility (mole fraction) for this record: CCCN(CCC)S(=O)(=O)c1ccc(C(=O)O)cc1
0.014

###

Details: in methyl acetate, 308.15 K
property_measured: solubility (mole fraction)
Hey, just send me the number, nothing else.

Give the reported value of solubility (mole fraction) for this record: CCCN(CCC)S(=O)(=O)c1ccc(C(=O)O)cc1
0.0112

###

Conditions: in isopropanol, 283.15 K
property_measured: solubility (mole fraction)
Hey, just send me the number, nothing else.

Give the reported value of solubility (mole fraction) for this record: CCCN(CCC)S(=O)(=O)c1ccc(C(=O)O)cc1
0.00627

###

Details: in MTBE, 283.15 K
property_measured: solubility (mole fraction)
Hey, just send me the number, nothing else.

Give the reported value of solubility (mole fraction) for this record: CCCN(CCC)S(=O)(=O)c1ccc(C(=O)O)cc1
0.00461
